Provenance of the data: PubChem BioAssay

Catalogue of composite z-score readings, one per entry.
Assay Method Text: small-molecule microarray binders of probe aEGFR, primary screen, biochemical, biotinylated probe, 635/667 nm fluorescence (AID 1097);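 also: probe is a biotinylated anti-EGFR antibody binding compounds printed on slides; score combines fluorescence near 667 nm and signal to noise of each spot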
Test Context: higher = more signal
Just the number, please, no unit after it.

Please review the following examples before continuing.
compound=O=C1O[C@H](c2ccccc2)[C@H](c2ccccc2)N2[C@H]1[C@@H](C(=O)Nc1nc3ccccc3s1)[C@]1(C(=O)Nc3ccc(C#CC4=CCCCC4)cc31)[C@H]2c1ccc(O)cc1 readout_type="composite z-score" observed=-0.0679
compound=C=CCN1C(=O)[C@]2(O[C@H](CCO)[C@@H]([Si](C)(C)c3ccc(OC)cc3)[C@@H]2C)c2cc(NC(=O)c3ccc(OC)cc3)ccc21 readout_type="composite z-score" observed=-0.111
compound="O=C1C2C=CC(C(O)c3ccc(I)cc3)N(Nc3ccccc3)C2C(=O)N1c1ccccc1 (configuration not stated)" readout_type="composite z-score" observed=0.0352
compound="CC(C)C[C@@H]1NC(=O)[C@@]23C(=O)N[C@@H](Cc4ccccc4)C2[C@H](C)[C@@]2(C)O[C@H]2C3/C=C/C/C=C\\CNC(=O)[C@@H](C)NC1=O (some centres not stated)" readout_type="composite z-score" observed=-0.131
compound=COc1ccc(C#Cc2ccc3c(c2)[C@]2(C(=O)N3)[C@H](C(=O)Nc3nc4ccccc4s3)[C@H]3C(=O)O[C@H](c4ccccc4)[C@H](c4ccccc4)N3[C@@H]2c2ccccc2OCCO)cc1 readout_type="composite z-score" observed=-0.106

Prompt line: Entry C=C/C=C/[C@@H]1C(=C)CN([C@@H](Cc2ccccc2)C(=O)OC)[C@H]1[C@@H](O)Cc1ccccc1 has what composite z-score?
Response line: -0.0228
